Test: Cytotoxicity against human A549-ACE2 cells assessed as reduction in cell viability
Type: toxicity, cell-based
Details: a549-ace2
metricName: CC50 (µM)
Field: numeric (µM). Do not append units.

The examples below pair each entry with its known result.
[
  {
    "molSmiles": "C=C(CC(=O)NNC(=O)CCc1ccccc1C(=O)N[C@H](C)c1cccc2ccccc12)C(=O)OC",
    "CC50 (µM)": 6.1
  },
  {
    "molSmiles": "C[C@@H](NC(=O)c1ccccc1CCC(=O)NNC(=O)/C=C/C(=O)OCCC(F)(F)F)c1cccc2ccccc12",
    "CC50 (µM)": 61.9
  },
  {
    "molSmiles": "COC(=O)/C=C/C(=O)NNC(=O)CCc1ccccc1C(=O)N[C@H](C)c1cccc2ccccc12",
    "CC50 (µM)": 29.9
  },
  {
    "molSmiles": "C[C@@H](NC(=O)c1ccccc1CCC(=O)NNC(=O)/C=C/C(=O)OCC1CCCC1)c1cccc2ccccc12",
    "CC50 (µM)": 69.5
  },
  {
    "molSmiles": "COC(=O)/C=C/C(=O)NNC(=O)CCc1ccccc1C(=O)N[C@H](C)c1cccc(-c2cc3ccccc3o2)c1",
    "CC50 (µM)": 59
  }
]

Let's switch to this molecule now.
*Q* Fill in the blank: the reported CC50 of C[C@@H](NC(=O)c1ccccc1CCC(=O)NNC(=O)/C=C/C(=O)OCc1nccs1)c1cccc2ccccc12 is ____.
*A* 16
